conditions: 313.15 K; 101.33 kPa; Liquid; Vibrating tube method
value.kind: mass density (kg/m3)
Numbers only, in kg/m3.

Example compounds with recorded mass density:
>>> observed("CC(C)Cn1cc[n+](C)c1.O=S(=O)([N-]S(=O)(=O)C(F)(F)F)C(F)(F)F")
1421.9
>>> observed("CCCCCC[n+]1ccn(C)c1.O=S(=O)([N-]S(=O)(=O)C(F)(F)F)C(F)(F)F")
1358.8
>>> observed("CCCCCCCn1cc[n+](C)c1.O=S(=O)([N-]S(=O)(=O)C(F)(F)F)C(F)(F)F")
1331.6
>>> observed("CC(C)CCCn1cc[n+](C)c1.O=S(=O)([N-]S(=O)(=O)C(F)(F)F)C(F)(F)F")
1358.5
>>> observed("CCCC[n+]1ccn(C)c1.O=S(=O)([N-]S(=O)(=O)C(F)(F)F)C(F)(F)F")
1422.6
>>> observed("CCCCCn1cc[n+](C)c1.O=S(=O)([N-]S(=O)(=O)C(F)(F)F)C(F)(F)F")
1389.3
>>> observed("CC(C)[n+]1ccn(C)c1.O=S(=O)([N-]S(=O)(=O)C(F)(F)F)C(F)(F)F")
1462.6
>>> observed("CCCn1cc[n+](C)c1.O=S(=O)([N-]S(=O)(=O)C(F)(F)F)C(F)(F)F")
1460.6
>>> observed("CC(C)CCn1cc[n+](C)c1.O=S(=O)([N-]S(=O)(=O)C(F)(F)F)C(F)(F)F")
1388.7

[Q] Consider the compound `CC(C)CCCCn1cc[n+](C)c1.O=S(=O)([N-]S(=O)(=O)C(F)(F)F)C(F)(F)F` and give its measured mass density.
[A] 1330.6

###

settings: 293.15 K; 101.33 kPa; Liquid; Vibrating tube method
Give mass density for every item shown.
Give bare numbers, in kg/m3.

For each of the compounds below, state mass density.
1. CCCC[n+]1ccn(C)c1.O=S(=O)([N-]S(=O)(=O)C(F)(F)F)C(F)(F)F
2. CC(C)Cn1cc[n+](C)c1.O=S(=O)([N-]S(=O)(=O)C(F)(F)F)C(F)(F)F
3. CC(C)[n+]1ccn(C)c1.O=S(=O)([N-]S(=O)(=O)C(F)(F)F)C(F)(F)F
4. CC(C)CCCCn1cc[n+](C)c1.O=S(=O)([N-]S(=O)(=O)C(F)(F)F)C(F)(F)F

[A]
[1441.9, 1441.1, 1482.5, 1348.7]
